Give pKd for every item shown.
# MEASURED_TARGET: human RORγt ligand binding domain (RORγt LBD) (Homo sapiens, UniProt P51449)
# Construct: His-tag (N); TurboTEV protease cleavage site (ENLYFQG) (N)
# ASSAY_REMARKS: RORγt ThermoFluor assay
# MEASUREMENT_CONTEXT: estimated from thermal shift concentration response
# Experimental: This approach is applicable to a wide variety of systems, and rigorous in theoretical interpretation through quantitation of equilibrium binding constants (KD). […] Fluorescence was measured by continuous illumination with UV light (Hamamatsu LC6) supplied via fiber optic and filtered through a band-pass filter (380-400 nm; >6 OD cutoff). […] Images were collected at each temperature, and the sum of the pixel intensity in a given area of the assay plate was recorded versus temperature. […]
Give bare numbers, as −log10 of the molar value.

Example entries and their recorded answers appear below.
MOLECULE	OBSERVATION_TYPE	NUMERIC_VALUE
C[C@H](NS(=O)(=O)c1ccc(-c2sc(-c3nnc(C(C)(C)O)o3)nc2C(=O)N2CC(F)(F)C[C@@H]2C)c(Cl)c1Cl)C(F)(F)F [Example 6/5]	pKd	9.22
C[C@H](NS(=O)(=O)c1ccc(-c2sc(-c3cnn[nH]3)nc2C(=O)N2CCCC[C@@H]2C)c(Cl)c1Cl)C(F)(F)F [Example 16]	pKd	8.18
CCN(CC)C(=O)c1nc(-c2nnc(C(N)=O)o2)sc1-c1ccc(S(=O)(=O)N[C@@H](C)C(F)(F)F)c(Cl)c1Cl [Example 5/1]	pKd	6.92

Would you be so kind as to report pKd for each listed record?
1. C[C@H](NS(=O)(=O)c1ccc(-c2sc(-c3nnc(C(C)(C)O)n3C3CC3)nc2C(=O)N2CCC(F)(F)CC2)c(Cl)c1Cl)C(F)(F)F [Example 23]
2. CC(C)(Cc1nnc(-c2nc(C(=O)N3CCC(F)CC3)c(-c3cc(C(C)(C)C)cc(C(O)(C(F)(F)F)C(F)(F)F)c3)s2)o1)C(=O)O [Example 2/2]
3. CC[C@H](NS(=O)(=O)c1ccc(-c2sc(-c3noc(CC(C)(C)C(=O)O)n3)nc2C(=O)N2CC(F)(F)C[C@@H]2C)c(C(F)F)c1Cl)C(F)(F)F [Example 10/3]
4. C[C@H](NS(=O)(=O)c1ccc(-c2sc(-c3nnc(C(C)(C)O)o3)nc2C(=O)N2CCC(F)(F)CC2)c(Cl)c1F)C(F)(F)F [Example 8/1]
5. CC[C@H](NS(=O)(=O)c1ccc(-c2sc(-c3nnc(CC(C)(C)C#N)o3)nc2C(=O)N2CCC(F)CC2)c(Cl)c1Cl)C(F)(F)F [Example 1/1]
6. CC[C@H](NS(=O)(=O)c1ccc(-c2sc(-c3nnc(C(C)(C)O)o3)nc2C(=O)N2CCC(F)(F)CC2)c(Cl)c1)C(F)(F)F [Example 6/12]

Found:
[8.51, 8.70, 11.44, 8.25, 9.00, 8.00]

Need pKd for each of these molecules.
1. CC[C@H](NS(=O)(=O)c1ccc(-c2sc(-c3noc(CC(C)(C)O)n3)nc2C(=O)N2CCC(F)(F)C2)c(C(F)F)c1F)C(F)(F)F [Example 12/1]
2. C[C@H]1CCCCN1C(=O)c1nc(-c2noc(CC(C)(C)C(=O)O)n2)sc1-c1ccc(C(O)(C(F)(F)F)C(F)(F)F)c(Cl)c1Cl [Example 20]
3. CC(C)(O)c1nnc(-c2nc(C(=O)N3CC(F)(F)CC3(C)C)c(-c3ccc(S(=O)(=O)NC4(C(F)F)CC4)c(F)c3Cl)s2)o1 [Example 6/22]

Found:
[7.52, 10.59, 5.92]

* * *

# MEASURED_TARGET: full-length human RORγt (Homo sapiens)
# Construct: expressed in transfected cells; host or cells: HEK293T, transiently transfected with pCMV-BD-ROR
# ASSAY_REMARKS: RORγt (full-length human) Reporter Assay, Conditions A
# Assay type: cell-based
# MEASUREMENT_CONTEXT: HEK293T cells, GAL4-DBD-RORγt, luciferase; read-out: RORγt (FL) Reporter Assay A, IC50
pIC50: −log10 of the molar value.
I would appreciate it if you labelled entries Y when pIC50 is 7 or higher, otherwise N.

Below, 7 compounds whose answers are already recorded.
SMILES_STR	MEASURED_TARGET	GROUP
CCN(CC)C(=O)c1nc(-c2cc(C(C)(C)O)ncn2)sc1-c1ccc(S(=O)(=O)N[C@@H](C)C(F)(F)F)c(Cl)c1Cl	full-length human RORγt (Homo sapiens)	Y
CCN(CC)C(=O)c1nc(-c2cc(C(C)(C)O)ccn2)sc1-c1ccc(S(=O)(=O)N[C@@H](C)C(F)(F)F)c(Cl)c1Cl	full-length human RORγt (Homo sapiens)	Y
CC(C)(O)c1nnc(-c2nc(C(=O)N3CCC(F)(F)CC3)c(-c3ccc(CC(O)(C(F)(F)F)C(F)(F)F)c(Cl)c3Cl)s2)o1	full-length human RORγt (Homo sapiens)	Y
C[C@H](NS(=O)(=O)c1ccc(-c2sc(-c3nnc(CC(C)(C)O)o3)nc2C(=O)N2CCC(F)(F)CC2)c(Cl)c1Cl)C(F)(F)F	full-length human RORγt (Homo sapiens)	Y
CC[C@H](NS(=O)(=O)c1ccc(-c2sc(-c3cccc(CC(C)(C)C(=O)O)n3)nc2C(=O)N2CC(F)(F)C[C@@H]2C)c(C(F)F)c1F)C(F)(F)F	full-length human RORγt (Homo sapiens)	Y
CCN(CC)C(=O)c1nc(-c2nnc(CC(C)(C)C(=O)O)o2)sc1-c1ccc(S(=O)(=O)N[C@@H](C)C(F)(F)F)c(Cl)c1Cl	full-length human RORγt (Homo sapiens)	N
CC[C@H](NS(=O)(=O)c1ccc(-c2sc(-c3nnc(C(C)(C)O)o3)nc2C(=O)N2CC(F)(F)C2)c(Cl)c1)C(F)(F)F	full-length human RORγt (Homo sapiens)	N

Lookup: Determine whether this compound has pIC50 no lower than 7: CC[C@H](NS(=O)(=O)c1ccc(-c2sc(-c3nnc(C(C)(C)O)o3)nc2C(=O)N2CCC(F)(F)CC2)c(Cl)c1F)C(F)(F)F
Found: Y

* * *

# MEASURED_TARGET: human RORγt ligand binding domain (RORγt LBD) (Homo sapiens)
# Construct: His-tag (N); TurboTEV protease cleavage site (ENLYFQG) (N); made in house; host or cells: E. coli (pHIS1, a modified pET expression vector)
# Sequence (P51449 with tags, fused parts or gaps): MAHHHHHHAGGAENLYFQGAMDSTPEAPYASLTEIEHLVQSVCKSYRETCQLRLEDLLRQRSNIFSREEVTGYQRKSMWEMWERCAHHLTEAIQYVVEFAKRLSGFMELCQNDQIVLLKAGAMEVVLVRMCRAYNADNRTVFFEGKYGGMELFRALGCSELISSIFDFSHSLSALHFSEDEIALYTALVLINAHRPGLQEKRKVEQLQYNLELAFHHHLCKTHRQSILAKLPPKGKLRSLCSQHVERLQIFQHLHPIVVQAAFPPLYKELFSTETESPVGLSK
# ASSAY_REMARKS: RORγt ThermoFluor assay
# MEASUREMENT_CONTEXT: estimated from thermal shift concentration response
Kindly supply the reported pKd values for the records listed here.
One number for each entry, as −log10 of the molar value.

Take a look at these entries with their results.
SMILES_STR	NUMERIC_VALUE
C[C@H]1CCCCN1C(=O)c1nc(-c2nnc(CC(C)(C)C(=O)O)o2)sc1-c1ccc(C(O)(C(F)(F)F)C(F)(F)F)c(Cl)c1Cl	9.01
CC[C@H](NS(=O)(=O)c1ccc(-c2sc(-c3noc(CC(C)(C)O)n3)nc2C(=O)N2CCC(F)CC2)c(C(F)F)c1F)C(F)(F)F	8.03
CC[C@H](NS(=O)(=O)c1ccc(-c2sc(-c3nnc(C(C)(C)O)o3)nc2C(=O)N2CCC(F)(F)CC2)c(Cl)c1F)C(F)(F)F	9.05
C[C@H](NS(=O)(=O)c1ccc(-c2sc(-c3nnc(C4(C(F)(F)F)CC4)o3)nc2C(=O)N2CCC(F)(F)CC2)c(Cl)c1Cl)C(F)(F)F	9.15
CCN(C(=O)c1nc(-c2nnc(C(C)(C)O)o2)sc1-c1ccc(S(=O)(=O)N[C@@H](C)C(F)(F)F)c(Cl)c1Cl)C(C)C	8.77

Working through the 7 compounds below one at a time, give pKd for each.
1. CC(C)(O)c1nnc(-c2nc(C(=O)N3CCC(F)(F)CC3)c(-c3ccc(S(=O)(=O)NC(C)(C)C(F)(F)F)c(F)c3Cl)s2)o1
2. C[C@H](NS(=O)(=O)c1ccc(-c2sc(-c3noc(=O)[nH]3)nc2C(=O)N2CCC(F)CC2)c(Cl)c1Cl)C(F)(F)F
3. CCCN(CC)C(=O)c1nc(-c2nnc(C(C)(C)O)o2)sc1-c1ccc(S(=O)(=O)N[C@@H](C)C(F)(F)F)c(Cl)c1Cl
4. CCN(CC)C(=O)c1nc(-c2nnc(CC(C)(C)C(=O)O)o2)sc1-c1ccc(S(=O)(=O)N[C@@H](C)C(F)(F)F)c(Cl)c1Cl
5. CCCN(C)C(=O)c1nc(-c2nnc(C(C)(C)O)o2)sc1-c1ccc(S(=O)(=O)N[C@@H](C)C(F)(F)F)c(Cl)c1Cl
6. CC(C)(O)Cc1nnc(-c2nc(C(=O)N3CCC(F)CC3)c(-c3ccc(C(O)(C(F)(F)F)C(F)(F)F)c(Cl)c3Cl)s2)o1
7. CC[C@H](NS(=O)(=O)c1ccc(-c2sc(-c3nnc(C(C)(C)O)o3)nc2C(=O)N(CC)CC)c(Cl)c1F)C(F)(F)F

Found:
1: 8.21; 2: 6.55; 3: 8.35; 4: 8.89; 5: 7.80; 6: 7.62; 7: 7.96

Field: pKd. Fill in for each record below.
1. CC[C@H](NS(=O)(=O)c1ccc(-c2sc(-c3noc(CC(C)(C)C(=O)O)n3)nc2C(=O)N2CCC(F)(F)CC2)c(C(F)F)c1Cl)C(F)(F)F
2. CC[C@H](NS(=O)(=O)c1ccc(-c2sc(-c3nnc(CC(C)(C)C(=O)O)o3)nc2C(=O)N2CCCC[C@@H]2C)c(Cl)c1Cl)C(F)(F)F
3. C[C@H](NS(=O)(=O)c1ccc(-c2sc(-c3cc(CC(C)(C)C(=O)O)on3)nc2C(=O)N2CCC(F)(F)CC2)c(C(F)F)c1F)C(F)(F)F
4. Cc1cc(C(O)(C(F)(F)F)C(F)(F)F)ccc1-c1sc(-c2nnc(C(C)(C)O)o2)nc1C(=O)N1CCC[C@@H]1C
5. C[C@H]1CCCN1C(=O)c1nc(-c2noc(C(C)(C)O)n2)sc1-c1ccc(C(O)(C(F)(F)F)C(F)(F)F)cc1C(F)F
6. CC1CCN(C(=O)c2nc(-c3nnc(C(C)(C)O)o3)sc2-c2ccc(S(=O)(=O)N[C@@H](C)C(F)(F)F)c3ccccc23)CC1
7. CC(C)(O)c1nnc(-c2nc(C(=O)N3CCC(F)(F)CC3)c(-c3ccc(CC(O)(C(F)(F)F)C(F)(F)F)c(Cl)c3Cl)s2)o1

Found:
11.85
11.52
8.43
7.74
7.66
8.82
8.77

List the reported pKd of each compound below.
1. C[C@H](NS(=O)(=O)c1ccc(-c2sc(-c3nnc(C(C)(C)O)o3)nc2C(=O)N2CC(F)(F)C[C@@H]2C)c(C(F)F)c1F)C(F)(F)F
2. C[C@H](NS(=O)(=O)c1ccc(-c2sc(-c3noc(C(C)(C)O)n3)nc2C(=O)N2CCC(F)(F)CC2)c(C(F)F)c1F)C(F)(F)F
3. C[C@H](NC(=O)c1cc(-c2sc(-c3nnc(C(C)(C)O)o3)nc2C(=O)N2CCC(F)CC2)cc(C2(C)CC2)c1)C(F)(F)F

Found:
1: 8.17; 2: 7.92; 3: 7.35

Quick request: pKd for each listed item, please.
1. CCN(CC)C(=O)c1nc(-c2nncn2CC(C)(C)O)sc1-c1ccc(C(O)(C(F)(F)F)C(F)(F)F)c(Cl)c1Cl
2. CC(C)(O)c1nnc(-c2nc(C(=O)N3CCC(F)(F)CC3)c(-c3ccc(CC(O)(C(F)(F)F)C(F)(F)F)c(Cl)c3)s2)o1

Found:
1. 7.57
2. 8.20

These measurements were taken from patent US9845319B2.
